Data credit: paper PMC9291521

# Test system: SARS-CoV-2-infected Vero E6 cells
# ASSAY_PROCEDURE: Micro-neutralization assay, virus-induced cytopathic effect in Vero E6 cells
# Type: cell-based
# ASSAY_SETUP: Severe acute respiratory syndrome coronavirus 2, Vero C1008, 72 h, read-out: Anti-CoV-2 EC50 Vero E6 Cells
pEC50: −log10 of the molar value.
PARAMETER: pEC50

structure_smiles=CN1CCN(C(=O)N[C@@H](Cc2ccccc2)C(=O)N[C@H](/C=C/S(=O)(=O)c2ccccc2)CCc2ccccc2)CC1 target_under_test="SARS-CoV-2-infected Vero E6 cells" parameter=pEC50 number=6.82

* * *

# Tested on: SARS-CoV-2-infected A549/ACE2 cells
# ASSAY_PROCEDURE: microbe, parasite or virus in culture
# Assay type: cell-based
# ASSAY_SETUP: Severe acute respiratory syndrome coronavirus 2, A549-ACE2, 96 h, read-out: Anti-CoV-2 EC50 A549/ACE2 Cells
pEC50: −log10 of the molar value. Residues, ends and D or L forms follow the SMILES beside them. *: point of attachment. Cbz = O=C(OCc1ccccc1)*
We begin with a simple list: items and their reported pEC50.
PARAMETER: pEC50

compound="O=C[C@H](Cc1ccccc1)NC(=O)[C@H](Cc1ccccc1)NC(=O)OCc1ccccc1 [Compound 1, Cbz-Phe-Phe-CHO] (Cbz-Phe-Phe-aldehyde)" result="< 4.70"
compound="CC(C)(C)[C@H](NC(=O)C(F)(F)F)C(=O)N1C[C@H]2[C@@H]([C@H]1C(=O)N[C@H](C#N)C[C@@H]1CCNC1=O)C2(C)C [PF-07321332, reference compound]" result=6.33
compound="O=C(N[C@@H](Cc1ccccc1)C(=O)N[C@H]1Cc2ccccc2OC1O)OCc1ccccc1 (stereo partly drawn) [Compound 2, Cbz-Phe-o-Tyr-CHO]" result="< 4.70"

* * *

# TARGET_UNDER_TEST: human cathepsin L (Homo sapiens)
# Sequence (P07711 114-333): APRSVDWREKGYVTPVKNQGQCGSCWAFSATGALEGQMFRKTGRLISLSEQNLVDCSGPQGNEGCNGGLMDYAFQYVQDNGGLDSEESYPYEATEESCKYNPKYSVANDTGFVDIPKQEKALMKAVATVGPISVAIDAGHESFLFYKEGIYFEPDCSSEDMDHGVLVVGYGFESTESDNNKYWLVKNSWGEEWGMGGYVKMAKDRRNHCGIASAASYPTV
# ASSAY_PROCEDURE: biochemical
# ASSAY_SETUP: Ki (initial EI complex), fit of vi/v0 vs. [I] to Eq. 4
pKi: −log10 of the molar value. Residues, ends and D or L forms follow the SMILES beside them. *: point of attachment. Cbz = O=C(OCc1ccccc1)*
Entries and their pKi
PARAMETER: pKi

molecule="O=C(N[C@@H](Cc1ccccc1)C(=O)N[C@H]1Cc2ccccc2OC1O)OCc1ccccc1 (stereo partly drawn) [Compound 2, Cbz-Phe-o-Tyr-CHO]" parameter=pKi number=7.27
molecule="O=C[C@H](Cc1ccccc1)NC(=O)[C@H](Cc1ccccc1)NC(=O)OCc1ccccc1 [Compound 1, Cbz-Phe-Phe-CHO] (Cbz-Phe-Phe-aldehyde)" parameter=pKi number=9.74
molecule="CN1CCN(C(=O)NC(Cc2ccccc2)C(=O)NC2Cc3ccccc3OC2O)CC1 (stereo not drawn) [Compound 8, NMe-Pip-Phe-o-Tyr-CHO]" parameter=pKi number=7.66
